# Target under test: UniProt:P48546
# Sequence (P48546 22-466): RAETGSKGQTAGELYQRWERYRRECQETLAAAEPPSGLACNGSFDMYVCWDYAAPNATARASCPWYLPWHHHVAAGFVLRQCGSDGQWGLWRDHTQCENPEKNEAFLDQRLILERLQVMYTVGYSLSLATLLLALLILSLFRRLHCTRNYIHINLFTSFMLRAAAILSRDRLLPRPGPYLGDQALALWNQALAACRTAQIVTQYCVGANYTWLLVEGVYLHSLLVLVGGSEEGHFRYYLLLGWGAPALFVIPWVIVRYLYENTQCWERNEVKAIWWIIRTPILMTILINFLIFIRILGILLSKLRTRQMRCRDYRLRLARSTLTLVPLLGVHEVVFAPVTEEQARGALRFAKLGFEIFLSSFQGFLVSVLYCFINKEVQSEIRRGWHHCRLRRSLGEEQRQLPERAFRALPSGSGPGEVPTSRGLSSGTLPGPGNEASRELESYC
# Test description: Functional in vitro GIPR antagonist potency assay (cAMP HTRF, CHO-K1 cells stably expressing hGIPR, hGIP stimulation at about EC80)
# Run conditions: geometric mean, hGIP at estimated EC80, examples marked ^2: overall geometric mean of multiple forms (including salts) tested
Structures can show the parent of a compound that is named as a salt.
# label = Y if IC50 < 50 nM else N

# TODO verify IC50 < 50 nM strictly for this molecule: `Cc1cc(-c2ccc(NC(=O)[C@H]3CCCN3C(=O)Nc3ccc(C(C)C)cc3)cc2)ccc1C(N)=O` N

# TODO verify IC50 < 50 nM strictly for this molecule: `CC(C)c1ccc(NC(=O)N2CCC[C@@H]2C(=O)Nc2ccc(-c3cccc(C(=O)O)c3)cc2)cc1` Y

# TODO verify IC50 < 50 nM strictly for this molecule: Cc1cc(NC(=O)N2CCC[C@@H]2C(=O)Nc2ccc(-c3ccc(C(=O)O)cc3)cc2)ncc1C(C)C [Example 146, trifluoroacetate salt] Y

# TODO verify IC50 < 50 nM strictly for this molecule: `O=C(O)c1ccc(-c2ccc(NC(=O)[C@H]3CCCN3C(=O)NCc3ccc(Cl)cc3F)cc2)cc1` N

# TODO verify IC50 < 50 nM strictly for this molecule: `Cc1cc(-c2ccc(NC(=O)[C@H]3CCCN3C(=O)NCc3ccc(C(C)C)cc3)nc2)ccc1C(=O)O` Y

# TODO verify IC50 < 50 nM strictly for this molecule: CC(C)c1ccc(NC(=O)N2CC[C@H](C)[C@@H]2C(=O)Nc2ccc(-c3ccc(C(=O)O)cc3)cc2)cc1 (single isomer, unassigned) Y

# TODO verify IC50 < 50 nM strictly for this molecule: `CC(C)c1ccc(NC(=O)N2CCC[C@@H]2C(=O)Nc2ccc(-c3cccc(C(=O)O)n3)cc2)cc1` N

# TODO verify IC50 < 50 nM strictly for this molecule: `Cc1cc(-c2ccc(NC(=O)[C@H]3CCCN3C(=O)Nc3ccc(C(C)C)cc3)nc2)ccc1C(=O)O` Y

# TODO verify IC50 < 50 nM strictly for this molecule: `CC(C)c1ccc(NC(=O)N2CCC[C@@H]2C(=O)Nc2ccc(-c3c(F)cc(C(=O)O)cc3F)cc2)cc1` Y

# TODO verify IC50 < 50 nM strictly for this molecule: `CC(C)c1ccc(NC(=O)N2C[C@H]3C[C@H]3[C@@H]2C(=O)Nc2ccc(-c3ccc(C(=O)O)cc3)cn2)cc1` Y

# TODO verify IC50 < 50 nM strictly for this molecule: `Cc1cc(NC(=O)N2CCC[C@@H]2C(=O)Nc2ccc(-c3ccc(C(=O)O)c(F)c3)cn2)ccc1C(F)(F)F` Y

# TODO verify IC50 < 50 nM strictly for this molecule: `CC(C)c1ccc(NC(=O)N2CCC[C@@H]2C(=O)Nc2ccc(-c3cc(F)cc(C(=O)O)c3)cc2)cc1` N

# TODO verify IC50 < 50 nM strictly for this molecule: `O=C(O)c1ccc(-c2ccc(NC(=O)[C@H]3CCCN3C(=O)NCc3ccc(C(F)(F)F)cc3)cc2)cc1` Y

# TODO verify IC50 < 50 nM strictly for this molecule: `O=C(O)c1ccc(-c2ccc(NC(=O)[C@H]3CCCN3C(=O)NCc3ccc(F)c(Cl)c3)cc2)cc1` N

# TODO verify IC50 < 50 nM strictly for this molecule: `Cc1ccc(C(=O)O)cc1-c1ccc(NC(=O)[C@H]2CCCN2C(=O)Nc2ccc(C(C)C)cc2)cc1` N

# TODO verify IC50 < 50 nM strictly for this molecule: `O=C(O)c1ccc(-c2ccc(NC(=O)[C@H]3CCCN3C(=O)NCc3cc(F)c(Cl)cc3F)cc2)cc1` Y

# TODO verify IC50 < 50 nM strictly for this molecule: `O=C(O)c1ccc(-c2ccc(NC(=O)[C@H]3CCCN3C(=O)Nc3ccc(C4(C(F)(F)F)CC4)cc3)nc2)cc1` Y

# TODO verify IC50 < 50 nM strictly for this molecule: `O=C(O)c1ccc(-c2ccc(NC(=O)[C@H]3CCCN3C(=O)NCc3ccc(C(F)(F)F)cc3)nc2)cc1` Y

# TODO verify IC50 < 50 nM strictly for this molecule: `Cc1nc(C(=O)O)ccc1-c1ccc(NC(=O)[C@H]2CCCN2C(=O)Nc2ccc(C(C)C)cc2)cc1` Y

# TODO verify IC50 < 50 nM strictly for this molecule: CCC(C)c1ccc(NC(=O)N2CCC[C@@H]2C(=O)Nc2ccc(-c3ccc(C(=O)O)cc3)cc2)cc1 (stereo partly shown) Y

# TODO verify IC50 < 50 nM strictly for this molecule: CC(C)c1ccc(NC(=O)N2CCC[C@@H]2C(=O)Nc2ccc3cc(C(=O)O)ccc3c2)cc1 [Example 10] N

# TODO verify IC50 < 50 nM strictly for this molecule: `Cc1cc(NC(=O)N2CCC[C@@H]2C(=O)Nc2ccc(-c3ccc(C(=O)O)nc3)cc2)ccc1C(F)(F)F` Y

# TODO verify IC50 < 50 nM strictly for this molecule: `COc1cc(C(=O)O)ccc1-c1ccc(NC(=O)[C@H]2CCCN2C(=O)Nc2ccc(C(C)C)cc2)nc1` N

# TODO verify IC50 < 50 nM strictly for this molecule: `Cc1cc(C(=O)O)ccc1-c1ccc(NC(=O)[C@H]2CCCN2C(=O)Nc2ccc(C(C)C)cc2)cn1` Y

# TODO verify IC50 < 50 nM strictly for this molecule: `CO[C@@H]1C[C@H](C(=O)Nc2ccc(-c3ccc(C(=O)O)cc3)cc2)N(C(=O)Nc2ccc(C(C)C)cc2)C1` Y

# TODO verify IC50 < 50 nM strictly for this molecule: `O=C(O)c1ccc(-c2ccc(NC(=O)[C@H]3CCCN3C(=O)Nc3ccc(C(F)(F)F)c(Cl)c3)cc2)cn1` Y
